Listed here are compounds together with their documented TGI.
Tested on: HT29 colon
Assay: NCI tumour cell line growth inhibition, 48 h
Numbers only here, please. The scale is µM.

C/C(=N\Nc1cc(C)c2cc(C)ccc2n1)c1ccccn1	1.65
O=C1C=C(Sc2ccccc2)c2nccc3c2c1nc1ccccc13	26.8
N#Cc1c(Cl)cccc1Oc1ccc(S(=O)(=O)/N=C(\NN)Nc2ccc(Cl)cc2)cc1	96.2

Data request: What TGI value was documented for this compound, `O=C1C(=O)c2ccccc2C(O)=C1CC=C(Br)Br` ?
Data returned: 53.5

====

System: K-562 leukemia
Experiment: NCI tumour cell line growth inhibition, 48 h
TGI values, listed per item

Examples from the recorded data:
CC(=O)OC(C)C1C2=C(C(=O)CC1(C)O)C(=O)c1c(ccc(-c3ccc4c(c3O)C(=O)C3=C(C4=O)C(C(C)OC(C)=O)C(C)(O)CC3=O)c1O)C2=O (centres undefined)	> 100 µM
O=[N+]([O-])c1nccn1CC(O)CN1CC1 (centres undefined)	> 100 µM
COc1ccc(C(=O)Cn2c(C(=O)/C=C/c3ccco3)nc3ccccc32)cc1	> 100 µM
O=S1CCS(=O)CCS(=O)CC1 (centres undefined)	> 100 µM
C/C(=N/Nc1nc2ccccc2n1C)c1ccccn1	> 100 µM
CC1(CO)OC(n2cc(C(=O)NC(=O)OCc3ccccc3)c(=O)[nH]c2=O)CC1O (centres undefined)	> 100 µM
CC(=O)[CH-]C(=O)c1ccccc1.CC(=O)[CH-]C(=O)c1ccccc1.CC1(C)C2CCC1(C)C([O-])C2.CC1(C)C2CCC1(C)C([O-])C2.[Ti+4]	> 100 µM
Cc1ccc(N=Nc2ccc(O)c(CN(C)C)c2)cc1C	43.5 µM

Data request: Query the reported TGI for K-562 leukemia; item: CC(=O)NC(C)(C)C1CC=C(C)CC1 (centres undefined)
Data returned: > 100 µM

Data request: Also `O=NNc1ccc(S(=O)(=O)c2ccccc2)cn1` ?
Data returned: > 100 µM

Data request: Also COC(=O)C(=O)OC1(C(C)=O)CC2(c3ccccc3)OC1(c1ccccc1)c1ccccc12 (centres undefined) ?
Data returned: > 100 µM

Data request: Continue with COc1ccc(C2CC(c3ccccc3)=Nc3c(-c4ccccc4)nnn32)cc1 (centres undefined)
Data returned: > 100 µM

Data request: Next compound up: `COc1ccc(-c2c(=O)[nH]n3c(=S)nc(-c4ccccc4)[nH]c23)cc1OC`
Data returned: 95 µM

Data request: Note, next up: `Cc1ccc(/C=C2/SC(Nc3nc(-c4csc(NC5=NC(=O)/C(=C\c6ccc(C)cc6)S5)n4)cs3)=NC2=O)cc1`
Data returned: > 50 µM

Data request: Similarly, `CC(=O)O[C@H]1C(=O)[C@@]2(C)[C@H]([C@H](OC(=O)c3cccc(C(F)(F)F)c3)[C@]3(O)C[C@H](OC(=O)[C@H](O)[C@@H](NC(=O)c4ccccc4)c4ccccc4)C(C)=C1C3(C)C)[C@]1(OC(C)=O)CO[C@@H]1C[C@@H]2O` ?
Data returned: 4.85 µM

Data request: Follow-up entry: `Cn1c(/C=C(\C#N)c2ccccc2)nc2c(N3CCOCC3)nc(Cl)nc21`
Data returned: 3.46 µM

Data request: Check `c1ccc(N=C(Nc2ccccc2)N2CCCCC2)cc1` too.
Data returned: > 100 µM

Data request: Same thing, different compound: O=C(NC(CS)C(=O)O)c1cccc2c(=O)c3ccccc3[nH]c12 (centres undefined)
Data returned: > 100 µM

Data request: Now the compound CC(C)CC1C(=O)NCCC(NC(=O)C(N)Cc2ccc(O)cc2)C(=O)NC(Cc2ccccc2)C(=O)NC(Cc2ccccc2)NC1=O (centres undefined)
Data returned: > 100 µM

====

Test system: T-47D breast
Test: NCI tumour cell line growth inhibition, 48 h
Short version: TGI at least 30 µM is condition met, less is condition not met.

Some solved entries appear below for comparison.
C=CC[N+]12CN3CN(CN(C3)C1)C2	condition met
O=C(CNc1ccc2c(c1)C(=O)c1ccccc1C2=O)Nc1ccc2c(c1)C(=O)c1ccccc1C2=O	condition not met
COc1ncc(-c2ccc3nccc(-c4ccnnc4)c3c2)cc1NS(=O)(=O)c1ccc(F)cc1F	condition not met
Oc1cc(-c2ccccc2)cn2c1nc1ccccc12	condition met
CC(C)(C)C(=O)C(C(=O)C(C)(C)C)C(=O)C(C)(C)C	condition met
O=C(CC(C(=O)c1ccco1)c1ccsc1)c1ccco1 (centres undefined)	condition met
O=c1nc2n(-c3ccc(Cl)cc3)c3ccc([N+](=O)[O-])cc3cc-2c(=O)[nH]1	condition met
Oc1cc(Br)cc2cccnc12	condition not met
N=C(N)N1CCC(N2CCOCC2)CC1	condition met
NC(N)=N/N=C\c1cccc(OCc2ccccc2)c1	condition not met

Data request: // inclusive: TGI at least 30 µM? input: `CCOC(=O)C(/C=N\C(=S)Nc1ccc(Cl)c(Cl)c1)=C(/O)c1ccccc1`
Data returned: condition met

Data request: Another: `COc1cc(-c2nn(-c3cccc(NC(=O)Nc4cc(C(F)(F)F)cc(C(F)(F)F)c4)c3)cc2-c2ccncc2)ccc1Cl`
Data returned: condition not met

Data request: Follow-up item: Nc1ncnc2c1nc(Cl)n2C1OC2COP(=O)(O)OC2C1O (centres undefined)
Data returned: condition met

====

System: MALME-3M melanoma
Experiment: NCI tumour cell line growth inhibition, 48 h
measured parameter: TGI

COc1cc(/C=C(\C#N)C(=O)c2ccccc2)ccc1O	> 100 µM
O=C1/C(=C/c2ccccc2)CN(C(=O)c2cccnc2)C/C1=C\c1ccccc1	18.9 µM
CC(C)(C)c1cc(C2NCCO2)cc(C(C)(C)C)c1O (stereo not given)	> 100 µM
Cn1nc2ccc3nccc(N4CCN(CCO)CC4)c3c2n1	> 100 µM
C[S+](C)CCOC(=O)C(=[N+]=[N-])c1ccc([N+](=O)[O-])cc1	> 100 µM
N#Cc1c(NN)nc(NN)c(C#N)c1-c1ccccc1	> 100 µM
C=C(C)C1Cc2c(cc(O)c3c(=O)c4c(oc23)C(O)Oc2cc(OC)c(OC)cc2-4)O1 (stereo not given)	> 10 µM
Cc1c(-c2c(-c3ccc(F)o3)sc3ncnc(O[C@H](Cc4ccccc4OCc4ccnn4CC(F)(F)F)C(=O)O)c23)ccc(OCCN2CCN(C)CC2)c1Cl	7.52 µM

Data request: Value lookup for TGI; key = O=[N+]([O-])c1nccn1CC(O)CN1CC1 (stereo not given)
Data returned: > 100 µM

====

Test system: HS 578T breast
Assay: NCI tumour cell line growth inhibition, 48 h
Reported values of TGI for individual entries
Unit µM implied. Number only.

For orientation, consider the following solved cases.
COc1cc(C)c2c(=O)c3ccccc3n(C)c2c1	72.6
CN(CCCCN1CCCC1)CCCN(C)C(=O)Cc1ccc(Cl)c(Cl)c1	59.6

Data request: So what's the measured TGI for this one? `O=C1c2ccccc2C(=O)[C@@]23O[C@@]12C1(Oc2cccc4cccc(c24)O1)[C@@H]1O[C@@H]1[C@@H]3O`
Data returned: 51.8

====

System: MDA-MB-231 breast
Test: NCI tumour cell line growth inhibition, 48 h
TGI by entry:

In the examples that follow, each entry is paired with its recorded TGI.
CCCCc1c2c(nc3c1CCCC3O)CCCC2 (stereo not given)	> 100 µM
NC(N)=N/N=C\c1cccc(OCc2ccccc2)c1	6.11 µM
CC(=O)OCC1OC(n2c(-c3ccccc3)c(C(C)=O)c(-c3ccc(Cl)cc3)c(C#N)c2=S)C(OC(C)=O)C(OC(C)=O)C1OC(C)=O (stereo not given)	> 100 µM
COc1ccc(C(=O)Cn2c(C(=O)/C=C/c3ccco3)nc3ccccc32)cc1	> 100 µM
CS/C1=C(\c2ccc(C)cc2)N(c2ccccc2)C(=O)C(=O)N(c2ccccc2)/C(c2ccc(C)cc2)=C(/SC)SS1	> 100 µM
N#CCCCC[N+]12CN3CN(CN(C3)C1)C2	> 100 µM
COc1cc(CNc2ccc3nc4n(c(=O)c3c2)CCCCC4)cc(OC)c1OC	> 100 µM
COc1cc2c3c(n(CCCN)c(=O)c2cc1OC)-c1cc2c(cc1/C3=C\CCN)OCO2	11.2 µM

Data request: What TGI value was documented for this compound, O=C(/C=C/c1cccnc1)NCCCCC1CCCN(C(=O)c2ccccc2)C1 (stereo not given) ?
Data returned: > 100 µM

Data request: Here is the next compound: `CCOC(=O)N1CCc2cc(OC)c(OC)c3c2c1cc1cc(OC)c(OC)cc13`
Data returned: > 100 µM

====

Tested on: HCC-2998 colon
Experiment: NCI tumour cell line growth inhibition, 48 h
measured parameter: TGI (µM)
Respond numerically; units are µM and should not be typed.

O=C(CC1(O)C(=O)Nc2c(Cl)ccc(Cl)c21)c1ccc2ccccc2c1 (centres undefined)	35.6

Data request: Sample COC1CC2CCC(C)C(O)(O2)C(=O)C(=O)N2CCCCC2C(=O)OC(C(C)CC2CCC(O)C(OC)C2)CC(=O)C(C)C=C(C)C(O)C(OC)C(=O)C(C)CC(C)/C=C/C=C/C=C1C (centres undefined) — what was its TGI?
Data returned: 11.4

Data request: How about `COc1ccc(/C=C\c2cc(OC)c(OC)c(OC)c2)cc1OC(=O)c1cccc(Cn2cc(CCOC(=O)[C@H](N)Cc3cn(C)c4ccccc34)nn2)c1` ?
Data returned: 1.7

Data request: Again, but for `Nc1nc(Cl)c2ncn(Cc3ccc(CCl)cc3)c2n1`
Data returned: 8.95

Each recorded value in this set is attributed to PubChem BioAssay (NCI).
